Items are presented alongside their recorded Kd.
- SYSTEM_TESTED: T1, PUF4 RNA-binding domain (Saccharomyces cerevisiae, UniProt P25339 537-888)
- T1 sequence: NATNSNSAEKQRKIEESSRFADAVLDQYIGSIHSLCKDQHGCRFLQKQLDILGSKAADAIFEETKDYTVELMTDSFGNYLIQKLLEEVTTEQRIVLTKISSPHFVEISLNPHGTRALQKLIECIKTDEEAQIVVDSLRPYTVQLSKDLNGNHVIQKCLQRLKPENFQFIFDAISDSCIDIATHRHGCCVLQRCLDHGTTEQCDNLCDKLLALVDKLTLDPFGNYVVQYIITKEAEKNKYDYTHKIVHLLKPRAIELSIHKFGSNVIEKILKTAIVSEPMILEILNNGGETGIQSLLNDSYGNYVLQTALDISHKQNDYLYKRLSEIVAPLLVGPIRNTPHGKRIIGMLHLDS
- METHOD: Mg; RNA-MaP; 20 mM Na-HEPES pH 7.4, 30 mM KOAc, 0.75 mM MgCl2, 0.1% Tween-20, 5% glycerol, 0.1 mg/mL BSA, 2 mM DTT; 25 C; 0.0125-409.6 nM protein
- SETUP_CONDITIONS: tags: N-His6-TEV cleaved; C-SNAP kept, Cy3B-labelled; label: tethered on chip by stalled RNA polymerase
Field: numeric (nM). Do not append units.

| BINDER | Kd (nM) |
| --- | --- |
| Id_ii_S2_P4E.4_K4.3_C4.2_[C-2G]_[T-1C]_H4.3_A4.1_F4.1_T4.2_[G10A]_[T11A] (ssRNA) RNA: UUUGAUUAAUAUGAUAUCGUUCUUUCUGCACACUAUUAAAUUCUUUCUCGAUAUCAUAUUAAUCUUU | 23.6 |

QUERY: What does the record list as Kd for Id_ii_S4_P5E.4_K5.3_C5.2_[C-2A]_H5.3_A5.1_F5.1_T5.2_[A12T] (ssRNA) RNA: UUUGACAACUGAUCGUUCUUUCUAUACACUUAUUAUUUUCUUUCUCGAUCAGUUGUCUUU ?
RESULT: 467

QUERY: What does the record list as Kd for Ic_S2_P5E.1_K5.1_C5.1_H5.1_A5.1_[T5G]_[T6C]_[A7T]_F5.1_[T8C]_[A10C]_T5.1 (ssRNA) RNA: UUUGAUUAAUAUGAUAUCGUUCUUUCUUGUAGCUCUCUUCUUUCUCGAUAUCAUAUUAAUCUUU ?
RESULT: 383

QUERY: What does the record list as Kd for Ib_S4_P4E.1_K4.1_C4.1_H4.1_A4.1_F4.1_[T8G]_[A9C]_T4.1 (ssRNA) RNA: UUUGACAACUGAUCGUUCUUUCUUGUAUAUGCUUCUUUCUCGAUCAGUUGUCUUU ?
RESULT: 20.6

QUERY: What does the record list as Kd for Ie_S2_P3E.2_K3.1_C3.2_H3.1_A3.1_F3.1_[+7T]_T3.2 (ssRNA) RNA: UUUGAUUAAUAUGAUAUCGUUCUUUCUCUUGUAUAUUAUAUUCUUUCUCGAUAUCAUAUUAAUCUUU ?
RESULT: 0.308
